Readings of Residual BCF OD440nm [%] for the listed molecules
- Test system: E. coli cells expressing an HPPD polypeptide
- PROTOCOL_DESCRIPTION: Brown color bioassay in liquid culture, residual brown color formation (BCF), OD440 after 96 hours
- Format: cell-based
- STUDY_CONDITIONS: brown color formation with Cmpd. 1 (1000 μM) relative to without, after 96 hours
Give your result in % as a bare value.

100 (protein, mutant HPPD polypeptide) MADLYENPMGLMGFEFIEFASPTPGTLEPIFEIMGFTKVATHRSKNVHLYRQGEINLILNNEPNSIASYFAAEHGPSVCGMAFRVKDSQKAYNRALELGAQPIHIDTGPMELNLPAIKGIGGAPLYLIDRFGEGSSIYDIDFVYLEGVERNPVGAGLKVIDHLTHNVYRGRMVYWANFYEKLFNFREARYFDIKGEYTGLTSKAMSAPDGMIRIPLNEESSKGAGQIEEFLMQFNGEGIQHVAFLTDDLVKTWDALKKIGMRFLTAPGDEYYEMLEGRLPDHGEPVDQLQARGILLDGSSVEGDKRLLLQIFSETLMGPVFFEFIQRKGHDGFGPDSFKVLFEQMERDQVRRGVLTAD
33
73 (protein, mutant HPPD polypeptide) MADLYENPMGLMGFEFIEFASPTPGTLEPIFEIMGFTKVATHRSKNVHLYRQGEINLILNNEPNSIASYFAAEHGPSVCGMAFRVKDSQKAYNRALELGAQPIHIDTGPMELNLPAIKGIGGAPLYLIDRFGEGSSIYDIDFVYLEGVERNPVGAGLKVIDHLTHNVYRGRMVYWANFYEKLFNFREARYFDIKGEYTGLTSKAMSAPDGMIRIPLNEESSKGAGQIEEFLMQFNGEGIQHVAFLTDDLVKTWDALKKIGMRFMTAPSDEYYEMLEGRLPDHGEPVDQLQARGILLDGSSVEGDKRLLLQIFSETLMGPVFFEFIQRKGDDGFGPDSFKVLFESVERDQVRRGVLTAD
72
102 (protein, mutant HPPD polypeptide) MADLYENPMGLMGFEFIEFASPTPGTLEPIFEIMGFTKVATHRSKNVHLYRQGEINLILNNEPNSIASYFAAEHGPSVCGMAFRVKDSQKAYNRALELGAQPIHIDTGPMELNLPAIKGIGGAPLYLIDRFGEGSSIYDIDFVYLEGVERNPVGAGLKVIDHLTHNVYRGRMVYWANFYEKLFNFREARYFDIKGEYTGLTSKAMSAPDGMIRIPLNEESSKGAGQIEEFLMQFNGEGIQHVAFLTDDLVKTWDALKKIGMRFLTAPRDEYYEMLEGRLPDHGEPVDQLQARGILLDGSSVEGDKRLLLQIFSERLMGPVFFEFIQRKGDDGFGPHSFKVLFEQMERDQVRRGVLTAD
26

Lab note: measured Residual BCF OD440nm [%] of 106 (protein, mutant HPPD polypeptide) MADLYENPMGLMGFEFIEFASPTPGTLEPIFEIMGFTKVATHRSKNVHLYRQGEINLILNNEPNSIASYFAAEHGPSVCGMAFRVKDSQKAYNRALELGAQPIHIDTGPMELNLPAIKGIGGAPLYLIDRFGEGSSIYDIDFVYLEGVERNPVGAGLKVIDHLTHNVYRGRMVYWANFYEKLFNFREARYFDIKGEYTGLTSKAMSAPDGMIRIPLNEESSKGAGQIEEFLMQFNGEGIQHVAFLTDDLVKTWDALKKIGMRFLTAPGDEYYEMLEGRLPDHGEPVDQLQARGILLDGSSVEGDKRLLLQIFSETLMGPVFFEFIQRKGHPGFGPDSFKVLFEQMERDQVRRGVLTAD was 73

Lab note: measured Residual BCF OD440nm [%] of 40 (protein, mutant HPPD polypeptide) MADLYENPMGLMGFEFIEFASPTPGTLEPIFEIMGFTKVATHRSKNVHLYRQGEINLILNNEPNSIASYFAAEHGPSVCGMAFRVKDSQKAYNRALELGAQPIHIDTGPMELNLPAIKGIGGAPLYLIDRFGEGSSIYDIDFVYLEGVERNPVGAGLKVIDHLTHNVYRGRMVYWANFYEKLFNFREARYFDIKGEYTGLTSKMMSAPDGMIRIPLNEESSKGAGQIEEFLMQFNGEGIQHVAFLTDDLVKTWDALKKIGMRFMTAPGDEYYEMLEGRLPDHGEPVDQLQARGILLDGSSVEGDKRLLLQIFSETLMGPVFFEFIQRKGDDGFGPDSFKVLFESVERDQVRRGVLTAD was 58

Lab note: measured Residual BCF OD440nm [%] of 22 (protein, mutant HPPD polypeptide) MADLYENPMGLMGFEFIEFASPTPGTLEPIFEIMGFTKVATHRSKNVHLYRQGEINLILNNEPNSIASYFAAEHGPSVCGMAFRVKDSQKAYNRALELGAQPIHIDTGPMELNLPAIKGIGGAPLYLIDRFGEGSSIYDIDFVYLEGVERNPVGAGLKVIDHLTHNVYRGRMVYWANFYEKLFNFREARYFDIKGEYTGLTSKAMSAPDGMIRIPLNEESSKGAGQIEEFLMQFNGEGIQHVAFLTDDLVKTWDALKKIGMRFMTAPPDTYYEMLEGRLPDHGEPVDQLQARGILLDGSSVEGDKRLLLQIFSETLMGPVFFEFIQRKGDDGFGPHSFKVLFESIERDQVRRGVLTAD was 58

Lab note: measured Residual BCF OD440nm [%] of 87 (protein, mutant HPPD polypeptide) MADLYENPMGLMGFEFIEFASPTPGTLEPIFEIMGFTKVATHRSKNVHLYRQGEINLILNNEPNSIASYFAAEHGPSVCGMAFRVKDSQKAYNRALELGAQPIHIDTGPMELNLPAIKGIGGAPLYLIDRFGEGSSIYDIDFVYLEGVERNPVGAGLKVIDHLTHNVYRGRMVYWANFYEKLFNFREARYFDIKGEYTGLTSKAMSAPDGMIRIPLNEESSKGAGQIEEFLMQFNGEGIQHVAFLTDDLVKTWDALKKIGMRFMTAPGDEYYEMLEGRLPDHGEPVDQLQARGILLDGSSVEGDKRLLLQIFSETLMGPVFFEFIQRKGDDGFGPDSFKVLFESAERDQVRRGVLTAD was 68
